system: 317291-083-R-J1-PDC complex spheroid growth; assay: Anticancer human tumor 317291-083-R-J1-PDC patient-derived soft tissue sarcoma cell line growth inhibition [Asc]; settings: curve of first compound; second compound 3 µM;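 note: compound exposure lasted seven days after spheroids formed for three days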
Can you tell me IC50 for the items I'm about to list?
Numbers only; they are read as nM.

Fill in: IC50 of CNC(C)C(=O)NC1CN(S(=O)(=O)c2cccc(S(=O)(=O)N3CCC4CCC(C(=O)NC(c5ccccc5)c5ccccc5)N4C(=O)C(NC(=O)C(C)NC)C3)c2)CCC2CCC(C(=O)NC(c3ccccc3)c3ccccc3)N2C1=O (centres undefined) + CCN1C(C(=O)NC23CCC(C(=O)O)(CC2)CC3)C(c2cccc(Cl)c2F)C2(C(=O)Nc3cc(Cl)ccc32)C12CCCCC2 is ___
75.2

Entry under review: O=C(c1cc(Cc2n[nH]c(=O)c3ccccc23)ccc1F)N1CCN(C(=O)C2CC2)CC1 + CCN1C(C(=O)NC23CCC(C(=O)O)(CC2)CC3)C(c2cccc(Cl)c2F)C2(C(=O)Nc3cc(Cl)ccc32)C12CCCCC2 . Reported IC50?
7680
